Record form. Attribute: variant/HC_K99L. Fill in for each entry.
# Measured Target: T1, mouse tissue factor pathway inhibitor (TFPI) (mouse, UniProt O54819 29-289, limits assumed)
# T1 construct: bought; also called mTFPI; murine TFPI
# T1 sequence (looked up): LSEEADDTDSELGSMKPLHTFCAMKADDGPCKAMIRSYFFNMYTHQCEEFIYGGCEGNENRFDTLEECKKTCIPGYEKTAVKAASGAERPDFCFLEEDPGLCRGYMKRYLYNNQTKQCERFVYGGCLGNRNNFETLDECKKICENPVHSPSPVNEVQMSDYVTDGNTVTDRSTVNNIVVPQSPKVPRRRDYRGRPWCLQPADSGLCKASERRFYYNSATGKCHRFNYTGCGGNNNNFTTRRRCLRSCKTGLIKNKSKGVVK
# Procedure Details: competitive ELISA

Determine from records and report variant/HC_K99L for 2A8 HC S31V+I51D+S54F+K99V/LC Y48F+N51V (Fab, V domains shown) VH: QVQLVESGGGLVQPGGSLRLSCAASGFTFRVYGMSWVRQAPGKGLEWVSSDRGFSSSTYYADSVKGRFTISRDNSKNTLYLQMNSLRAEDTAVYYCARVYRYWFDYWGQGTLVTVSS VL: DIELTQPPSVSVAPGQTARISCSGDNLRNYYAHWYQQKPGQAPVVVIFYDVNRPSGIPERFSGSNSGNTATLTISGTQAEDEADYYCQSWDDGVPVFGGGTKLTVLG 2.2 ratio

Determine from records and report variant/HC_K99L for 2A8 HC S35D+S55R+K99L/LC D1S+I2Y+A13S+S21T+R28P+N29K+Y48F+N51V+E80M+S89A+D91W+D92S+G93S+V94T (Fab, V domains shown) VH: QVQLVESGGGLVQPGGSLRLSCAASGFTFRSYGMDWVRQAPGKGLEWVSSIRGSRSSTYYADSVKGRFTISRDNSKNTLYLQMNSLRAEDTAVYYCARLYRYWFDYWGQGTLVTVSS VL: SYELTQPPSVSVSPGQTARITCSGDNLPKYYAHWYQQKPGQAPVVVIFYDVNRPSGIPERFSGSNSGNTATLTISGTQAMDEADYYCQAWWSSTPVFGGGTKLTVLG 16.8 ratio
